ASSAY: AUC in rat at 10 mg/kg, po
Format: ADME, organism-based
Parameters: dose 10 mg/kg, route oral
CONDITION SUMMARY: plasma
ENDPOINT LABEL: AUC (ng·h/mL)
Reply numerically in ng·h/mL, unit not repeated.

Note down AUC recorded for `Cc1ccc2c3c(ccc2n1)OC[C@H](CN1CCN(c2ccc4cc(C#N)ccc4n2)CC1)O3`
4620

---

Target protein (sequence): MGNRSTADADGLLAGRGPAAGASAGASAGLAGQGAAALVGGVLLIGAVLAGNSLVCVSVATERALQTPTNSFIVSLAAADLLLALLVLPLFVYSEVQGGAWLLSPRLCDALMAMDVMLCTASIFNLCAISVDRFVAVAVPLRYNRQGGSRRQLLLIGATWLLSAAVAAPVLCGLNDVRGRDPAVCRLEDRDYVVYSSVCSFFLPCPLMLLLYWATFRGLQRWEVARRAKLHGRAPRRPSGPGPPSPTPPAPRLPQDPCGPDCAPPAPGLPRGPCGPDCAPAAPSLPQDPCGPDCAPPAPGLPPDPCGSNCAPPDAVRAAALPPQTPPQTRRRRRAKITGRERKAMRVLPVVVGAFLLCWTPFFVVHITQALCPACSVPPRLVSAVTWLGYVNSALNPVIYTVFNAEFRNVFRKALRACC
ENDPOINT LABEL: pKi
Expect pKi as a plain number equal to -log10 of the molar concentration.

Report measured pKi; entry is `Cc1ccc2c3c(ccc2n1)OC[C@H](CN1CCN(c2ccc4cc(C#N)ccc4n2)CC1)O3`
5.85
